Listing: IC50 of selected compounds
target entity: COX-2 (Homo sapiens)
Sequence (P35354 18-604): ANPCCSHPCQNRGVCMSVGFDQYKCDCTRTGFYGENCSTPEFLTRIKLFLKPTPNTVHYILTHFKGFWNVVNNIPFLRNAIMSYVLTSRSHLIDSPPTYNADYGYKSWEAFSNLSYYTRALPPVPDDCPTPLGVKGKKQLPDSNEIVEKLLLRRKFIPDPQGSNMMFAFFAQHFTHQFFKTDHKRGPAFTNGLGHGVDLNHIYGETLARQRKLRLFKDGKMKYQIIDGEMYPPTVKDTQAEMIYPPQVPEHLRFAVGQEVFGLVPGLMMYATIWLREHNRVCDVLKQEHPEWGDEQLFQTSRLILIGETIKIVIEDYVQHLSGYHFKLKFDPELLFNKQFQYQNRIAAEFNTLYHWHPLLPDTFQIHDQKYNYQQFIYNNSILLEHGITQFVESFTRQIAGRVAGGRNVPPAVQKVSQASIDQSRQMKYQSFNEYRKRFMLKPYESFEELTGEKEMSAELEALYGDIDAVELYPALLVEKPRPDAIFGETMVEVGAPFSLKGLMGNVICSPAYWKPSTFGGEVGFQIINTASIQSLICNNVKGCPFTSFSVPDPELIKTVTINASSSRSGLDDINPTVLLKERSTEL
test summary: TLC assay, inhibition of purified human COX-2
Format: biochemical
experimental context: Table 2 amide derivatives; human COX-2 (66 nM), 20 min, then 1-14C-AA (50 μM) 37° C. 30 sec
Answer format: numeric, µM implied, no suffix.

compound	property measured	result value
COC(=O)[C@H](C)NC(=O)Cc1c(C)n(C(=O)c2ccc(Cl)cc2)c2ccc(OC)cc12 [Compound 52]	IC50	0.4

Name the reported IC50 value associated with the compound COc1ccc2c(c1)c(CC(=O)Nc1ccc(Cl)nc1)c(C)n2C(=O)c1ccc(Cl)cc1 [Compound 48]
0.047
